Every entry's value here was drawn from ChEMBL document CHEMBL1148674.

- Target entity: Voltage-dependent N-type calcium channel subunit alpha-1B (Homo sapiens) (UniProt Q00975)
- Sequence (Q00975 whole entry, looked up): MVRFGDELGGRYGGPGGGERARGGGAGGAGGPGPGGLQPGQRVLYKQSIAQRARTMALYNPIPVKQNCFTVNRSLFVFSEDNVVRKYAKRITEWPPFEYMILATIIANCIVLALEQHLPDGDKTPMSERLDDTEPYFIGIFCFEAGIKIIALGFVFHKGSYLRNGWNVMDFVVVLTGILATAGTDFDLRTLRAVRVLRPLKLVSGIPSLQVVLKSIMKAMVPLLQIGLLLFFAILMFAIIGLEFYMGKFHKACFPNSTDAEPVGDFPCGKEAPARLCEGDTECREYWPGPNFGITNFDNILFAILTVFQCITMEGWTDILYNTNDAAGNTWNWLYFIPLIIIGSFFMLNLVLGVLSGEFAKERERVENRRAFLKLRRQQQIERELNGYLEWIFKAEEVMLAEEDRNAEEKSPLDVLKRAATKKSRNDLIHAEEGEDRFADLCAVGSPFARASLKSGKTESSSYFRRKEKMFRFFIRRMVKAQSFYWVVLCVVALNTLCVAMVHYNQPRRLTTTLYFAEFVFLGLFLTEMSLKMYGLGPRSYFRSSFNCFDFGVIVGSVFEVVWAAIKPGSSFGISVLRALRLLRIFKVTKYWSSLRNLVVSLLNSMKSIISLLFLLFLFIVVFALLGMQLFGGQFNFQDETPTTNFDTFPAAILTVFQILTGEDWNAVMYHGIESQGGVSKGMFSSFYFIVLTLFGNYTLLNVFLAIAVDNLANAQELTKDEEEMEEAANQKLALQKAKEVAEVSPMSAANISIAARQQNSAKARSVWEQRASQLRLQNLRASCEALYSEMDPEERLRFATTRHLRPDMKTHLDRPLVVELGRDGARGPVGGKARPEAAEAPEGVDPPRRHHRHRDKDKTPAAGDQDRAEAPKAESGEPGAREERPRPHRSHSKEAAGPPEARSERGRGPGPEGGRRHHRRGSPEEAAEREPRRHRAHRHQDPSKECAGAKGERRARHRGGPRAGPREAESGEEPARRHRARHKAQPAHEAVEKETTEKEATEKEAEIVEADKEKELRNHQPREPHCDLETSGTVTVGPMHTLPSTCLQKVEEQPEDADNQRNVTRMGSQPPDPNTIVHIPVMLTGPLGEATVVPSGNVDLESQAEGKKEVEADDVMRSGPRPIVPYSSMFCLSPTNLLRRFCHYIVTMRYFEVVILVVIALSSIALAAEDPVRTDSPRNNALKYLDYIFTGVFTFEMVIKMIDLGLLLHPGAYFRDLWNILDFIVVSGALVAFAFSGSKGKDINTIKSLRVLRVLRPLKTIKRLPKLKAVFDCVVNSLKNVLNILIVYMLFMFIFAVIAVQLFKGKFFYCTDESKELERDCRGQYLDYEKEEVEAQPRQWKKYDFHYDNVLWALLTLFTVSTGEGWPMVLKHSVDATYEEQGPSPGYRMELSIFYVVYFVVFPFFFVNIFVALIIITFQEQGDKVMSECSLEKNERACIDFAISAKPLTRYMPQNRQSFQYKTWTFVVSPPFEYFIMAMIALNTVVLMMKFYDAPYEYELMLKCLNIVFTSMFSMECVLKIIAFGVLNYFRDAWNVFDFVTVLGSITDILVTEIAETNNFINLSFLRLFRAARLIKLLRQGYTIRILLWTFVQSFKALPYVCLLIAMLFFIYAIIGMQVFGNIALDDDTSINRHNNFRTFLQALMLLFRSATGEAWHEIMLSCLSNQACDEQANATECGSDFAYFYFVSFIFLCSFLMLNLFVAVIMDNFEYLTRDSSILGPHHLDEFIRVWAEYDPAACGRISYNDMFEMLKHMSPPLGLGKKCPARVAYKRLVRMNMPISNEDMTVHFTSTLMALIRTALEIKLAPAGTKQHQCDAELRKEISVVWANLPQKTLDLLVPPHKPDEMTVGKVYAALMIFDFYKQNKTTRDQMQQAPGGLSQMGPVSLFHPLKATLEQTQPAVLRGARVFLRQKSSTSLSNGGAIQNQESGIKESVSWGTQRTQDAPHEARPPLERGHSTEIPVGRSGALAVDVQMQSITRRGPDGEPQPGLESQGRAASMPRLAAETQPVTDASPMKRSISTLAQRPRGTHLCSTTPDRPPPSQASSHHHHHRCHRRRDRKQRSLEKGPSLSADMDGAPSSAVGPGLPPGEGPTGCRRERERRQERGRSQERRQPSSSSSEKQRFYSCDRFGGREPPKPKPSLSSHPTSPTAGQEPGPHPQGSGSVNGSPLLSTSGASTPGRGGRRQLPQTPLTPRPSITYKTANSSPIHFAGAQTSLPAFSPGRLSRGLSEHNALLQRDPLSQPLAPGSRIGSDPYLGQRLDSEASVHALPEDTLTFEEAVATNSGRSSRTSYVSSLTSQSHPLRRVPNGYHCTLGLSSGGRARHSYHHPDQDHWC
- Assay comment: Ability to block calcium channel N type 2.2v expressed in HEK293 cells at 10 uM by whole cell patch clamp method
- Assay type: functional, cell-based
Assay endpoint: inhibition (%)

Some solved cases for reference:
Compound: COc1ccc(C[C@@H]2N[C@H](C(=O)NCc3ccccc3)COC2=O)cc1 (relative stereo)
Units: %
inhibition: 2.5

Compound: O=C(NC1CCCCC1)[C@@H]1COC(=O)[C@H](Cc2ccccc2)N1 (relative stereo)
Units: %
inhibition: 9.4

I. C[C@H](NC(=O)[C@H]1COC(=O)[C@H](Cc2ccc(Cl)cc2)N1)c1ccccc1
II. C[C@H](NC(=O)[C@@H]1COC(=O)[C@H](Cc2ccc(Cl)cc2)N1)c1ccccc1
Query: # argmax over inhibition for candidates I and II Selection: enter the item's label.
Result: II
(II: 10.9%, I: 4%)

1. CSCC[C@@H]1N[C@H](C(=O)NCc2ccccc2)COC1=O (relative stereo)
2. C[C@H](NC(=O)[C@@H]1COC(=O)[C@H](Cc2ccc(O)cc2)N1)c1ccccc1
Query: # argmax over inhibition for candidates 1 and 2 Selection: enter the item's label.
Result: 1
